tested on: HCT-116 colon; test: NCI tumour cell line growth inhibition, 48 h; in the data active = GI50 below about 0.43 µM; inactive = the rest
Classes used: T for active, F for inactive

{"Compound": "COc1cc(-c2nc(NC(C)=O)sc2-c2ccnc(NCCNS(=O)(=O)c3ccccc3)n2)ccc1Cl", "Class name": "F"}
{"Compound": "COc1ccc(-c2nsc3c2NC(=O)CC3c2ccc(F)cc2)cc1 (centres undefined)", "Class name": "F"}
{"Compound": "COc1ccccc1/C=C/C(=O)c1c(O)cc2occc2c1OC", "Class name": "F"}
{"Compound": "NC(=NCCCC1(c2ccccc2)CCCC1)Nc1ccc(Cl)cc1", "Class name": "F"}
{"Compound": "O=C1/C=C/[C@@H](O)[C@@H]2C[C@@H](O)C[C@H]2/C=C/CCC[C@H](CCc2ccc(C(F)(F)F)cc2)O1", "Class name": "T"}
{"Compound": "O=Cc1ccc(-c2ccc(-c3nc4ccccc4[nH]3)cc2)s1", "Class name": "F"}
{"Compound": "C[C@@H](N)C1CCC(C(=O)Nc2ccncc2)CC1 (some centres undefined)", "Class name": "F"}
{"Compound": "Cc1cc(C(=O)Nc2nc3cccc(Cl)c3n2[C@@H]2CCCCN(C(=O)/C=C/CN(C)C)C2)ccn1", "Class name": "F"}
{"Compound": "O=C(CCCCCCCn1cc(-c2cccnc2)nn1)Nc1ccccc1-c1ccccc1", "Class name": "T"}
{"Compound": "CC(C)CCSC1=CC(=O)c2ccccc2C1=O", "Class name": "F"}
{"Compound": "O=C(N/N=C/c1ccccc1O)C(O)(c1ccccc1)c1ccccc1", "Class name": "F"}
{"Compound": "COC(=O)[C@H]1C(=O)[C@@]2(C)[C@H]([C@H](OC(=O)c3ccccc3)[C@]3(O)C[C@H](OC(=O)[C@H](O)[C@@H](NC(=O)c4ccc(F)cc4)c4ccccc4)C(C)=C1C3(C)C)[C@]1(OC(C)=O)CO[C@@H]1C[C@@H]2O", "Class name": "T"}
{"Compound": "COc1cc2c(F)nccc2cc1C(=O)N[C@@H](c1ccc(F)c(Cl)c1)[C@@H]1C[C@@H](O)CN1", "Class name": "F"}
{"Compound": "COc1c2c3ccccc3nc-2n(C)c2ccccc12", "Class name": "F"}

---

Overview of recorded TGI for various compounds
system: 786-0 renal; assay: NCI tumour cell line growth inhibition, 48 h

{"Compound": "O=C(Cc1nc2ccccc2s1)Nc1ccc(Cl)cc1", "TGI": "> 100 µM"}
{"Compound": "CNC1C(O)C(OC2C(N)CC(N)C(OC3OC(CN)=CCC3N)C2O)OCC1(C)O (stereo not drawn)", "TGI": "> 100 µM"}
{"Compound": "O=C1Nc2cc(Cl)ccc2N=CC1NC(=O)C(c1ccccc1)c1ccccc1Cl (stereo not drawn)", "TGI": "> 100 µM"}
{"Compound": "C[N+](C)(C)CC(=O)N/N=C(\\CCC(=O)NCCc1ccccc1)CC(=O)c1ccccc1", "TGI": "> 100 µM"}
{"Compound": "CCC(=O)C1(N2CCOCC2)CCN(CCCC(=O)c2ccc(F)cc2)CC1", "TGI": "> 100 µM"}
{"Compound": "Cc1cc(N)ccc1N=Nc1ccc(S(=O)(=O)CCOS(=O)(=O)O)cc1", "TGI": "6.55 µM"}
{"Compound": "CC1(C)O[C@H]([C@H](O)c2nnc3ccc(Cl)nn23)[C@@H]([C@H]2COC(C)(C)O2)O1", "TGI": "> 100 µM"}
{"Compound": "N.N.N.N.O=NN1CCCCCC1(P(=O)([O-])[O-])P(=O)([O-])[O-].[Pt+4].[Pt+4]", "TGI": "> 100 µM"}
{"Compound": "CC(C)OC(=O)Nc1cccc(Cl)c1", "TGI": "> 100 µM"}
{"Compound": "C=CCCOC(=O)CO[N+](=O)[O-]", "TGI": "> 100 µM"}
{"Compound": "C/C1=C/C(=O)O[C@@H]2C[C@@H](CC[C@H](C)/C=C\\C=C\\CC1)O[C@@](O)([C@@H]1CSC(=O)N1CO)C2", "TGI": "12.3 µM"}
{"Compound": "COc1ccc(/C=N/n2c(=O)[nH]c3ccccc3c2=O)cc1", "TGI": "> 100 µM"}
{"Compound": "O=C(Nc1ccc(Cl)cc1)NS(=O)(=O)c1coc2ccccc2c1=O", "TGI": "> 10 µM"}
{"Compound": "CN(C)CCCNC(=O)c1ccc2oc3cc4ccccc4c(=O)n3c2c1", "TGI": "> 50 µM"}
{"Compound": "C=CCOc1ccc(/C(N=Nc2ccc(C)cc2)=N/NC(=O)c2ccccc2)cc1OC", "TGI": "> 100 µM"}
{"Compound": "Cc1ccc(-c2cc(-c3ccc(Cl)cc3)nc(/N=C3\\C(=O)N(CN4CCOCC4)c4ccccc43)n2)cc1", "TGI": "74.3 µM"}
{"Compound": "CCOC(=O)C(Cc1c[nH]c2ccc([N+](=O)[O-])cc12)(NC(C)=O)C(=O)OCC", "TGI": "> 802 µM"}
{"Compound": "C=C(C)CNC(=S)N(N)c1ccc(OC)cc1", "TGI": "> 100 µM"}
{"Compound": "CCN1CCN(c2nc3ccccc3nc2C(=O)c2ccc(OC)cc2)CC1", "TGI": "64.8 µM"}
{"Compound": "Cc1c(-c2ccccc2)[nH]c2ccc(Cl)cc2c1=O", "TGI": "> 100 µM"}
{"Compound": "COC(=O)C(Cc1ccccc1)NC(=O)C(CCC(=O)OCc1ccccc1)NC(=O)OC(C)(C)C (stereo not drawn)", "TGI": "> 100 µM"}
{"Compound": "CCCCCN1CCN(c2ncccn2)CC1", "TGI": "> 100 µM"}
{"Compound": "C1=Nc2ccc(cc2)N=Cc2ccccc2OCc2cccc(n2)COc2ccccc21", "TGI": "> 100 µM"}
{"Compound": "O=c1cc(-c2ccccc2)oc2cc(OCC(O)COc3ccc4c(=O)cc(-c5ccccc5)oc4c3)ccc12", "TGI": "52 µM"}
{"Compound": "Cc1ccc2c(c1)C(C)Cc1c(ncnc1-n1cnc3cc(C)ccc31)N2C (stereo not drawn)", "TGI": "12.5 µM"}
{"Compound": "N=c1oc2c(Br)cc(Br)cc2cc1C(=O)Nc1ccccn1", "TGI": "> 100 µM"}
{"Compound": "COc1cc(OC)c2ssc3c(OC)cc(OC)c4ssc1c2-c43", "TGI": "> 100 µM"}
{"Compound": "CC1(C)C(C#N)=[N+]([O-])C(C)(C)N1O", "TGI": "> 100 µM"}
{"Compound": "COc1ccc(/C=C/C(=O)C(C)(C)CN2CCCCC2)cc1", "TGI": "29.9 µM"}
{"Compound": "CCCOc1ccc(-c2nc(-c3ccc(N=Cc4ccc(N(CCOS(C)(=O)=O)CCOS(C)(=O)=O)cc4C)cc3)cs2)cc1", "TGI": "26.5 µM"}
{"Compound": "NCCCCCCCCn1c2c(c3ccccc3c1=O)C(=O)c1ccccc1-2", "TGI": "56.4 µM"}
{"Compound": "Cc1nc2c(O)cc3c4c(=O)n(C)c(=O)n(C)c4n(Cc4ccccc4)c3c2nc1C", "TGI": "32.8 µM"}
{"Compound": "COc1ccccc1/C=C/C(=O)c1c(O)cc2occc2c1OC", "TGI": "98.4 µM"}
{"Compound": "NC(=O)/C(=C\\c1ccncc1)c1cccc2ccccc12", "TGI": "> 100 µM"}
{"Compound": "CC(C)CCSC1=CC(=O)c2ccccc2C1=O", "TGI": "34.4 µM"}
{"Compound": "N#CC1(C#N)NC(c2cccnc2)C(C#N)(C#N)NC1c1cccnc1 (stereo not drawn)", "TGI": "> 100 µM"}
{"Compound": "O=C1C=CC(=O)c2c1cc([N+](=O)[O-])c1ccoc21", "TGI": "3.35 µM"}
{"Compound": "CNC(=O)c1c(NC(=O)c2ccc(C(F)(F)F)cc2)sc2c1CCC(=O)C2", "TGI": "15.1 µM"}
{"Compound": "CCCCCCCCCCCCNC(=O)[C@H]1CSC(c2cc3ccccc3s2)N1 (stereo partly drawn)", "TGI": "9.11 µM"}
{"Compound": "O=C(/C=C/c1ccc(O)c(O)c1)OCc1ccccc1", "TGI": "84.3 µM"}
{"Compound": "O=C1/C=C/[C@@H](O)[C@@H]2C[C@@H](O)C[C@H]2/C=C/CCC[C@H](CCc2ccc(C(F)(F)F)cc2)O1", "TGI": "0.378 µM"}
{"Compound": "CC1CN(c2ccc(Cl)cc2)CC(C)(C)OC(=O)O1 (stereo not drawn)", "TGI": "> 100 µM"}
{"Compound": "Cc1cc(=O)oc2cc(SC(=O)N(C)C)ccc12", "TGI": "> 100 µM"}

---

Overview of recorded GI50 for various compounds
system: HL-60(TB) leukemia; assay: NCI tumour cell line growth inhibition, 48 h

{"Compound": "CCc1c2c(nc3cc4c(c(N)c13)OCO4)-c1cc3c(c(=O)n1C2)COC(=O)[C@]3(O)CC", "Tested system": "HL-60(TB) leukemia", "GI50": "< 0.001 µM"}
{"Compound": "Cc1nc2ccccn2c1NC(=O)NNC(=S)Nc1ccc(Br)cc1", "Tested system": "HL-60(TB) leukemia", "GI50": "24.4 µM"}
{"Compound": "CCOC(CCCNCCCn1c2c(c3cc(OC)c(OC)cc3c1=O)C(=O)c1cc3c(cc1-2)OCO3)OCC", "Tested system": "HL-60(TB) leukemia", "GI50": "5.25 µM"}
{"Compound": "CCN1C(=O)N(CC)C2C1NN=c1s/c(=C\\c3ccccc3F)c(=O)n12 (stereo not drawn)", "Tested system": "HL-60(TB) leukemia", "GI50": "0.0239 µM"}
{"Compound": "CC(C)CC1C(=O)N2CCC[C@H]2C2(O)O[C@](NC(=O)C3C=C4c5cccc6[nH]c(Br)c(c56)C[C@H]4N(C)C3)(C(C)C)C(=O)N12 (stereo partly drawn)", "Tested system": "HL-60(TB) leukemia", "GI50": "3.8 µM"}
{"Compound": "COc1ccc(-c2nsc3c2NC(=O)CC3c2ccc(F)cc2)cc1 (stereo not drawn)", "Tested system": "HL-60(TB) leukemia", "GI50": "0.598 µM"}
{"Compound": "COC(=O)[C@H]1C(=O)[C@@]2(C)[C@H]([C@H](OC(=O)c3ccccc3)[C@]3(O)C[C@H](OC(=O)[C@H](O)[C@@H](NC(=O)c4ccc(F)cc4)c4ccccc4)C(C)=C1C3(C)C)[C@]1(OC(C)=O)CO[C@@H]1C[C@@H]2O", "Tested system": "HL-60(TB) leukemia", "GI50": "0.00614 µM"}
{"Compound": "CNC(=O)c1c(NC(=O)c2ccc(C(F)(F)F)cc2)sc2c1CCC(=O)C2", "Tested system": "HL-60(TB) leukemia", "GI50": "0.363 µM"}
